- procedure_text: chemical genetic growth profiling, strain panel (AID 1159580);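 also: tested at 20 µM; growth read once vehicle control cultures reached saturation at 30 °C; 1 = growth at the plate median or of vehicle wells; lower values mean less growth of the strain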
- test_conditions: S. cerevisiae deletion strains, growth OD, locus YOR083W, strain WHI5, stronger effect = lower value
About 2,000 (36%) of roughly 5,500 compounds were called active. Not shown: some 18% with an inconclusive outcome. The list shows a part of the results.
readout_name: normalized growth
Numbers only.

>  <compound>
O=C(O)/C=C(\CC(=O)O)C(=O)O

>  <value_reported>
1.01

$$$$
>  <compound>
CCCCCCCCCc1ccc(O)cc1

>  <value_reported>
0.0608

$$$$

I have 8 compounds here; please give me normalized growth for each one.
1. CC(=O)O[C@@H]1CC2C(C)(C)C(=O)CC[C@]2(C)C2CC[C@@]3(C)[C@H](c4ccoc4)OC(=O)C4OC43[C@@]21C (stereo not given in full)
2. NS(=O)(=O)c1cc2c(cc1C(F)(F)F)NCNS2(=O)=O
3. OC1C(O)C(O)C(O)C(O)C1O (stereo not given)
4. CC(=O)O[C@@H]1CC2C(C)(C)[C@H](O)C[C@H](O)[C@]2(C)C2CC[C@@]3(C)[C@H](c4ccoc4)OC(=O)[C@H]4O[C@]43[C@@]21C (stereo not given in full)
5. CC1(C)O[C@@H]2CC3C4C[C@H](F)C5=CC(=O)C=CC5(C)C4C(O)CC3(C)[C@]2(C(=O)CO)O1 (stereo not given in full)
6. COC(=O)C1=C(C)NC(C)=C(C(=O)OCCN(C)Cc2ccccc2)C1c1cccc([N+](=O)[O-])c1 (stereo not given)
7. CC(C)(O)[C@@H]1CC[C@](C)([C@H]2[C@@H](O)C[C@@]3(C)C4C[C@H](O[C@@H]5O[C@H](CO)[C@@H](O)[C@H](O)[C@H]5O)C5C(C)(C)[C@@H](O[C@@H]6OC[C@@H](O)[C@H](O)[C@H]6O)CC[C@@]56C[C@@]46CC[C@]23C)O1 (stereo not given in full)
8. C[C@@H]1CC[C@@]2(OC1)OC1C(O)C3C4CC[C@H]5C[C@H](O[C@@H]6O[C@H](CO)[C@H](O[C@@H]7O[C@H](CO)[C@@H](O)[C@H](O[C@@H]8OC[C@@H](O)[C@H](O)[C@H]8O)[C@H]7O[C@@H]7O[C@H](CO)[C@H](O)[C@H](O[C@@H]8O[C@H](CO)[C@@H](O)[C@H](O)[C@H]8O)[C@H]7O)[C@H](O)[C@H]6O)[C@H](O)C[C@]5(C)C4CC[C@]3(C)C1[C@@H]2C (stereo not given in full)

Given back:
1. 1.03
2. 1.04
3. 1
4. 1.02
5. 0.918
6. 1
7. 1
8. 0.974

For each of the compounds below, state normalized growth.
1. Nc1ccc(C(=O)O)c(O)c1
2. CC(C)(Oc1ccc(Cl)cc1)C(=O)O
3. CC(=O)O[C@@H]1CC2C(C)(C)CCC(=O)[C@]2(C)C2CC[C@@]3(C)[C@H](c4ccoc4)OC(=O)C4OC43[C@@]21C (stereo not given in full)
4. CN(C)C(=O)Oc1cc(OC(=O)N(C)C)cc(C(O)CNC(C)(C)C)c1 (stereo not given)
5. CC(=O)Nc1ccc(O)cc1

Given back:
[0.945, 0.985, 1.02, 1.01, 0.988]

---

- procedure_text: chemical genetic growth profiling, strain panel (AID 1159580);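 also: tested at 20 µM; growth read once vehicle control cultures reached saturation at 30 °C; 1 = growth at the plate median or of vehicle wells; lower values mean less growth of the strain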
- test_conditions: S. cerevisiae deletion strains, growth OD, locus YNL248C, strain rpa49
Hit rate of the full screen: of about 5,500 compounds, about 2,000 (36%) were called active. Not shown: some 18% with an inconclusive outcome. Rule as the data show it: active = normalized growth mostly below about 0.91 (no sharp cut-off); inconclusive = no clear call, values can overlap the other calls; inactive = mostly above about 0.92. The list shows a part of the results.
Output constraint: value belongs to true (1) for active, false (0) for inactive

Previously resolved entries follow.
>  <compound>
O=c1cc(-c2cccc(O)c2)oc2ccc(O)cc12

>  <assigned_label>
false (0)

$$$$
>  <compound>
CC(=O)O[C@@H]1CC2C(C)(C)[C@H](O)C[C@H](O)[C@]2(C)C2CC[C@@]3(C)[C@H](c4ccoc4)OC(=O)[C@H]4O[C@]43[C@@]21C (some centres undefined)

>  <assigned_label>
false (0)

$$$$
>  <compound>
CC(=O)O[C@H]1C[C@@H](O)C(C)(C)C2C[C@@H](OC(C)=O)[C@]3(C)C(CC[C@@]4(C)[C@H](c5ccoc5)OC(=O)C5OC543)[C@]21C (some centres undefined)

>  <assigned_label>
false (0)

$$$$

Asked: Name the outcome recorded for CCCCCCCCCCCCCCCC[n+]1ccccc1 in the assay.
Given back: true (1)

---

- procedure_text: chemical genetic growth profiling, strain panel (AID 1159580);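 also: tested at 20 µM; growth read once vehicle control cultures reached saturation at 30 °C; 1 = growth at the plate median or of vehicle wells; lower values mean less growth of the strain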
- test_conditions: S. cerevisiae deletion strains, growth OD, locus YKR001C, strain vps1, stronger effect = lower value
Screen size: about 5,500 compounds; about 2,000 (36%) were called active. Not shown: some 18% with an inconclusive outcome. The list shows a part of the results.
Can you tell me normalized growth for the items I'm about to list?
Give bare numbers.

Solved cases below.
>  <compound>
CCC(/C=C/[C@@H](C)[C@H]1CCC2C3CC=C4C[C@@H](O)CC[C@]4(C)C3CC[C@@]21C)C(C)C (stereo partly specified)

>  <readout_name>
normalized growth

>  <value_reported>
1.02

$$$$
>  <compound>
CCOC(=O)C1C(C=C(C)C)C1(C)C (stereo unspecified)

>  <readout_name>
normalized growth

>  <value_reported>
1.04

$$$$
>  <compound>
O=c1c2ccccc2oc2ccc(O)cc12

>  <readout_name>
normalized growth

>  <value_reported>
0.509

$$$$
>  <compound>
CSc1ccc2c(c1)C(N1CCN(C)CC1)Cc1ccccc1S2 (stereo unspecified)

>  <readout_name>
normalized growth

>  <value_reported>
0.0823

$$$$
>  <compound>
CC(=O)O[C@@H]1CC2C(C)(C)C(=O)CC[C@]2(C)C2CC[C@@]3(C)[C@H](c4ccoc4)OC(=O)C4OC43[C@@]21C (stereo partly specified)

>  <readout_name>
normalized growth

>  <value_reported>
0.987

$$$$
>  <compound>
Cc1coc2ccccc2c1=O

>  <readout_name>
normalized growth

>  <value_reported>
1.02

$$$$

Parameter requested: normalized growth. Apply to each item below.
1. CC(=O)CC(c1ccccc1)c1c(O)c2ccccc2oc1=O (stereo unspecified)
2. CC(=O)OC1CC2C(C)(C)CCCC2(C)C2CCC3(C)C(c4ccoc4)OC(=O)C4OC43C12C (stereo unspecified)
3. CC(=O)O[C@H]1C[C@@]2(C)[C@H](c3ccoc3)OC(=O)[C@H]3O[C@]32[C@@]2(C)C1[C@]1(C)C(C[C@H]2OC(C)=O)C(C)(C)[C@H](OC(C)=O)C[C@@H]1OC(C)=O (stereo partly specified)
4. CC(=O)O[C@@H]1CC2C(C)(C)CCC(=O)[C@]2(C)C2CC[C@@]3(C)[C@H](c4ccoc4)OC(=O)C4OC43[C@@]21C (stereo partly specified)
5. N[C@@H]1CONC1=O

Given back:
1: 1.02; 2: 0.993; 3: 0.982; 4: 0.983; 5: 1.02

---

- procedure_text: chemical genetic growth profiling, strain panel (AID 1159580);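 also: tested at 20 µM; growth read once vehicle control cultures reached saturation at 30 °C; 1 = growth at the plate median or of vehicle wells; lower values mean less growth of the strain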
- test_conditions: S. cerevisiae deletion strains, growth OD, locus YGL253W, strain hxk2, stronger effect = lower value
Screen size: about 5,500 compounds; about 2,000 (36%) were called active. Not shown: some 18% with an inconclusive outcome. The list shows a part of the results.
readout_name: normalized growth
Answers are plain numbers.

Example cases with answers are listed next.
>  <compound>
NCCc1ccc(O)c(O)c1

>  <readout_name>
normalized growth

>  <value_reported>
0.989

$$$$
>  <compound>
CC(=O)N(O)CCCCCNC(=O)CCC(=O)N(O)CCCCCNC(=O)CCC(=O)N(O)CCCCCN

>  <readout_name>
normalized growth

>  <value_reported>
0.989

$$$$
>  <compound>
CC(=O)[C@H]1CCC2C3CC=C4C[C@@H](OC(=O)CCC(=O)O)CC[C@]4(C)C3CC[C@@]21C (stereo partly drawn)

>  <readout_name>
normalized growth

>  <value_reported>
0.971

$$$$
>  <compound>
C/C(=C\C(=O)OCCCCCCCCC(=O)O)C[C@@H]1OC[C@H](C[C@@H]2O[C@H]2[C@@H](C)[C@H](C)O)[C@@H](O)[C@H]1O

>  <readout_name>
normalized growth

>  <value_reported>
0.912

$$$$

Consider the following items and state reported normalized growth for each.
1. O=C(/C=C/c1ccccc1)c1ccc(O)cc1
2. CCCCCCc1ccc(O)cc1O
3. O=C(O)c1cn(-c2ccc(F)cc2)c2cc(N3CCNCC3)c(F)cc2c1=O
4. CCC(/C=C/[C@@H](C)[C@H]1CCC2C3CC=C4C[C@@H](O)CC[C@]4(C)C3CC[C@@]21C)C(C)C (stereo partly drawn)
5. CC(C)(Oc1ccc(Cl)cc1)C(=O)O
6. CC(=O)OCC(=O)[C@H]1CCC2C3CC=C4C[C@@H](O)CC[C@]4(C)C3CC[C@@]21C (stereo partly drawn)

Given back:
1: 0.177; 2: 0.893; 3: 0.993; 4: 0.962; 5: 1.01; 6: 0.937

Need normalized growth for each of these compounds.
1. CCC(CCC(C)[C@H]1CCC2C3CC=C4C[C@@H](O)CC[C@]4(C)C3CC[C@@]21C)C(C)C (stereo partly drawn)
2. ClC(Cl)=C(c1ccc(Cl)cc1)c1ccc(Cl)cc1
3. CCN(CC)CCNc1ccc(CO)c2sc3ccccc3c(=O)c12
4. CCn1cc(C(=O)O)c(=O)c2cc(F)c(N3CCNCC3)cc21
5. CC1(C)O[C@@H]2CC3C4C[C@H](F)C5=CC(=O)C=CC5(C)C4C(O)CC3(C)[C@]2(C(=O)CO)O1 (stereo partly drawn)
6. CC(C)(C)C(=O)C(Oc1ccc(Cl)cc1)n1cncn1 (stereo not drawn)

Given back:
1. 1.02
2. 0.993
3. 1.01
4. 0.995
5. 0.959
6. 0.0776

Give me normalized growth for each of these compounds, listed below.
1. CC(=O)[C@H]1CCC2C3CC=C4C[C@@H](O)CC[C@]4(C)C3CC[C@@]21C (stereo partly drawn)
2. CC1(C)O[C@@H]2CC3C4CCC5=CC(=O)C=C[C@]5(C)[C@@]4(F)[C@@H](O)C[C@]3(C)[C@]2(C(=O)CO)O1 (stereo partly drawn)
3. Cn1nnnc1SCC1=C(C(=O)O)N2C(=O)C(NC(=O)C(O)c3ccccc3)C2SC1 (stereo not drawn)
4. CC(C(=O)O)[C@H]1CCC2C3CC=C4C[C@@H](O)CC[C@]4(C)C3CC[C@@]21C (stereo partly drawn)
5. NCCc1ccc(O)cc1
6. CCOC(=O)C1C(C=C(C)C)C1(C)C (stereo not drawn)
7. CCCCC1C(=O)N(c2ccccc2)N(c2ccccc2)C1=O

Given back:
1: 0.9; 2: 1.02; 3: 0.98; 4: 0.989; 5: 0.972; 6: 1.02; 7: 0.994
